target: CCR-3 (Homo sapiens, UniProt P51677); test: CCR-3 competition binding SPA ([125I]eotaxin); parameters: expressed in transfected cells; details: inhibition of [125I]eotaxin binding to membranes of K562 cells stably expressing CCR-3; mean of at least two experiments; read-out: CCR-3 Binding Assay (pIC50) (converted)
Sequence (P51677 whole entry): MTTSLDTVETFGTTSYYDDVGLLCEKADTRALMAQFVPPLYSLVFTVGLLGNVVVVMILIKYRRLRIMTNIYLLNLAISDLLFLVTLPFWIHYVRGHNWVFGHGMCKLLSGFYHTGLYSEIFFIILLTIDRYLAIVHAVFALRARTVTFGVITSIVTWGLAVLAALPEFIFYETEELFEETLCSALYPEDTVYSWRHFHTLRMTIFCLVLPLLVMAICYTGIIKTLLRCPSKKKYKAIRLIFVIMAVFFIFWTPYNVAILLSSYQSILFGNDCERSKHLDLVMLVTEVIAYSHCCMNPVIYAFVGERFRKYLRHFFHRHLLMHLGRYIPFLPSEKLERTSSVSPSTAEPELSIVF
Counter-ions that a name gives are not always drawn.
Collected IC50 values appear next to each entry.
Your answer should be a plain number; it is taken to be in nM.

Take a look at these entries with their results.
[[record]]
compound = "CC(=O)Nc1cccc(CNC(=O)NCC2CN(Cc3ccc(Cl)c(Cl)c3)CCO2)c1 (stereo not shown) [Example 52, Formate]"
quantity_measured = "IC50"
reported_result = 1.78

[[record]]
compound = "O=C(NCC1CN(Cc2ccc(Cl)c(Cl)c2)CCO1)Nc1cccc(C(F)(F)F)c1 (stereo not shown) [Example 22]"
quantity_measured = "IC50"
reported_result = 955


# query: IC50 of entry O=C(NCC1CN(Cc2cccc(I)c2)CCO1)Nc1ccc(Cl)cc1 (stereo not shown) [Example 21]
955

Look up IC50 for this compound: O=C(NCC1CN(Cc2ccc3ccccc3c2)CCO1)Nc1ccc(Cl)cc1 (stereo not shown) [Example 23]
832

====

target: CCR-3 (Homo sapiens, UniProt P51677); experiment: Eosinophil chemotaxis assay (eotaxin-induced); assay type: cell-based; set-up: Eosinophils were purified from human peripheral blood; endogenous in cells; host or cells: human peripheral blood eosinophils; conditions: functional pKi; eosinophils from human peripheral blood; agonist eotaxin; read-out: CCR-3 Eosinophil Chemotaxis Assay (fpKi) (converted)
Recorded measurements of Ki, one per entry
Quick note: give the figure in nM, leave out the unit.

Worked examples follow.
[[record]]
molecule = "O=C(NCC1CN(Cc2cccc(Cl)c2)CCO1)Nc1ccc(Cl)cc1 (stereo not drawn)"
quantity_measured = "Ki"
unit_tag = "nM"
reported_result = 1410

[[record]]
molecule = "CSc1cccc(NC(=O)NCC2CN(Cc3ccc(Cl)c(Cl)c3)CCO2)c1 (stereo not drawn)"
quantity_measured = "Ki"
unit_tag = "nM"
reported_result = 1450


Now take the following molecule into account.
Recorded Ki for O=C(NCC1CN(Cc2cccc3ccccc23)CCO1)Nc1ccc(Cl)cc1 (stereo not drawn) with CCR-3 (Homo sapiens, UniProt P51677), please?
1100

====

Listed below: IC50 values for each entry.
target: CCR-3 (Homo sapiens, UniProt P51677); assay: CCR-3 competition binding SPA ([125I]eotaxin); set-up: expressed in transfected cells; settings: inhibition of [125I]eotaxin binding to membranes of K562 cells stably expressing CCR-3; mean of at least two experiments; read-out: CCR-3 Binding Assay (pIC50) (converted)
Write down the numeric answer in nM and omit the unit.

Entry O=C(NCC1CN(Cc2ccc(Cl)s2)CCO1)Nc1ccc(Cl)cc1 (stereo not shown) has what IC50?
3800

====

target: CCR-3 (Homo sapiens, UniProt P51677); assay: CCR-3 competition binding SPA ([125I]eotaxin); parameters: expressed in transfected cells; settings: inhibition of [125I]eotaxin binding to membranes of K562 cells stably expressing CCR-3; mean of at least two experiments; read-out: CCR-3 Binding Assay (pIC50) (converted)
quantity-measured: IC50 (nM)
Numbers only here, please. The scale is nM.

[[record]]
molecule = "Cc1ccc(CNC(=O)NCC2CN(Cc3ccc(Cl)c(Cl)c3)CCO2)cc1 (stereo not drawn) [Example 3]"
tested_on = "CCR-3 (Homo sapiens, UniProt P51677)"
quantity_measured = "IC50"
unit_tag = "nM"
reported_result = 69.2


Fill in: IC50 of N#Cc1ccc(NC(=O)NCC2CN(Cc3ccc(Cl)c(Cl)c3)CCO2)cc1 (stereo not drawn) [Example 25] is ___
1000
